Molecular target: Tyrosine-protein phosphatase non-receptor type 1 (Homo sapiens) (UniProt P18031)
Sequence (P18031 whole entry): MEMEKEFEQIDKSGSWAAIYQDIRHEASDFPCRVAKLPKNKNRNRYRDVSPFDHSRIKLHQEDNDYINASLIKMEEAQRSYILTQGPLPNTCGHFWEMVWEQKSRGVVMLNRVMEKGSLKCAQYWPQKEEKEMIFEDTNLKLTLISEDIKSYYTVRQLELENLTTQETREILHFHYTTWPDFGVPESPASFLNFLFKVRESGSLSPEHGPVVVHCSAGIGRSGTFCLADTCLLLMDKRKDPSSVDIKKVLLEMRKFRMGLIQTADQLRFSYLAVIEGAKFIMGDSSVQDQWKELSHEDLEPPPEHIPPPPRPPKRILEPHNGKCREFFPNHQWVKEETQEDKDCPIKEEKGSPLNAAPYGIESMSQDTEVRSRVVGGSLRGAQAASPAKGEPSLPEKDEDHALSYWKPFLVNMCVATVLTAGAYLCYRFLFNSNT
Test: Inhibition of PTP1B expressed in Escherichia coli BL21 (DE3) at 10 uM after 10 mins by spectrophotometry
metric.name: inhibition
The reply should consist of the numeric value with the unit placed after it.

>>> observed_value("CCOC(=O)c1c(-c2ccc(-c3cccc(OC)c3)cc2)csc1NC(=O)c1ccccc1C(=O)O")
"95.6%"
>>> observed_value("CC(C)OC(=O)c1c(-c2ccc(-c3ccccc3)cc2)csc1NC(=O)C1CCCCC1C(=O)O (centres undefined)")
"23.4%"

Report value: inhibition, system: Tyrosine-protein phosphatase non-receptor type 1 (Homo sapiens) (UniProt P18031), compound: CCOC(=O)c1c(-c2ccc3ccccc3c2)csc1NC(=O)C1C2C=CC(C2)C1C(=O)O (centres undefined)
2.4%

Report value: inhibition, system: Tyrosine-protein phosphatase non-receptor type 1 (Homo sapiens) (UniProt P18031), compound: CC(C)OC(=O)c1c(-c2ccc(-c3ccccc3)cc2)csc1NC(=O)C1C2C=CC(C2)C1C(=O)O (centres undefined)
63.2%
